Taken from BindingDB's records for doi:10.3109/14756366.2011.643302.

TARGET OR TEST SYSTEM: Protein farnesyltransferase subunit beta/geranylgeranyltransferase type-1 subunit alpha (Saccharomyces cerevisiae (strain ATCC 204508 / S288c), UniProt P22007+P29703)
EXPERIMENT SUMMARY: Yeast FTase Assay
CONDITION INFO: pH 7.5
Give measured IC50 for each item. Keep answers brief.
Please state the figure in nM; there is no need to write the unit.

Challenge: # get_value(readout='IC50', item= Cc1cccc(-c2c(C(=O)O)sc(SC(C)C)c2C#N)c1 )
Response given: 1400

Challenge: Next record, please: CC(C)Sc1sc(C(=O)O)c(-c2cccc(-c3ccccc3)c2)c1C#N
Response given: 640

Challenge: Next record, please: CC(C)Sc1sc(C(=O)O)c(-c2ccc(Cl)cc2)c1C#N
Response given: 110

Challenge: Next record, please: CC(C)Sc1sc(C(=O)O)c(-c2cccc(C(F)(F)F)c2)c1C#N
Response given: 1600

Challenge: Next record, please: COc1ccccc1-c1c(C(=O)O)sc(SC(C)C)c1C#N
Response given: 9700

Challenge: Next record, please: CC(C)Sc1sc(C(=O)O)c(-c2cccc(F)c2)c1C#N
Response given: 460

----------
TARGET OR TEST SYSTEM: Protein farnesyltransferase subunit beta/geranylgeranyltransferase type-1 subunit alpha (Saccharomyces cerevisiae (strain ATCC 204508 / S288c), UniProt P22007+P29703)
EXPERIMENT SUMMARY: Yeast FTase Assay
CONDITION INFO: pH 7.5
Field: label. Allowed values: 1.0 (IC50 < 600 nM) or 0.0 (IC50 >= 600 nM).

Challenge: Is 600 nM strictly greater than the compound's reported IC50? compound: COc1ccc(-c2c(C(=O)O)sc(SC(C)C)c2C#N)cc1
Response given: 1.0

Challenge: Next record, please: CC(C)Sc1sc(C(=O)O)c(-c2cccc3ccccc23)c1C#N
Response given: 0.0

Challenge: Next record, please: CC(C)Sc1sc(C(=O)O)c(-c2ccc3ccccc3c2)c1C#N
Response given: 1.0

Challenge: Next record, please: Cc1ccccc1-c1c(C(=O)O)sc(SC(C)C)c1C#N
Response given: 0.0

Challenge: Next record, please: CC(C)Sc1sc(C(=O)O)c(-c2ccc(-c3ccccc3)cc2)c1C#N
Response given: 0.0

Challenge: Next record, please: COc1cccc(-c2c(C(=O)O)sc(SC(C)C)c2C#N)c1
Response given: 0.0

Challenge: Next record, please: Cc1ccc(-c2c(C(=O)O)sc(SC(C)C)c2C#N)cc1
Response given: 1.0

Challenge: Next record, please: CC(C)Sc1sc(C(=O)O)c(-c2cccc(Cl)c2)c1C#N
Response given: 0.0

Challenge: Next record, please: CC(C)Sc1sc(C(=O)O)c(-c2ccc(C(F)(F)F)cc2)c1C#N
Response given: 1.0

Challenge: Next record, please: CC(C)Sc1sc(C(=O)O)c(-c2ccc(F)cc2)c1C#N
Response given: 1.0

----------
TARGET OR TEST SYSTEM: Protein farnesyltransferase subunit beta/geranylgeranyltransferase type-1 subunit alpha (Saccharomyces cerevisiae (strain ATCC 204508 / S288c), UniProt P22007+P29703)
Sequence (P22007 whole entry): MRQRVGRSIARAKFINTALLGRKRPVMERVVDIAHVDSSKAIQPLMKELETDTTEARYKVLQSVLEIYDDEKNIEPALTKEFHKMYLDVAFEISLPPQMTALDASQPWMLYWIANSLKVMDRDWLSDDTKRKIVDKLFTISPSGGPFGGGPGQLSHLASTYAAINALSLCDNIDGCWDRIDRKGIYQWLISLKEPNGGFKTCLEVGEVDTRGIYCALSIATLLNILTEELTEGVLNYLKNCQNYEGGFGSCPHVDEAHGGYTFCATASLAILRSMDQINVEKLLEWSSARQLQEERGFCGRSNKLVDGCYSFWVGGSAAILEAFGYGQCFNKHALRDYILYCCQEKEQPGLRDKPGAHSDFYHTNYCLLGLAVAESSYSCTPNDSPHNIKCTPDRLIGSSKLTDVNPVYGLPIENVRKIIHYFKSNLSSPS
Sequence (P29703 whole entry): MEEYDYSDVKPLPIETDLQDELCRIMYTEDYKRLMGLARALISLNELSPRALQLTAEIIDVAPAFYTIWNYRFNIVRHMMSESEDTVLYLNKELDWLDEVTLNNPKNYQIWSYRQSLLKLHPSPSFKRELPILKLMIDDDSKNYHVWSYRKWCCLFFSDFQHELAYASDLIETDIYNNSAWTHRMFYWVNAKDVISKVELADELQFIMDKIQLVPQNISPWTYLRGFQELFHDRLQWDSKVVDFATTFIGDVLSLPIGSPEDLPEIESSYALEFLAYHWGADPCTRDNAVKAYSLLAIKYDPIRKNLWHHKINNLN
EXPERIMENT SUMMARY: Yeast FTase Assay
CONDITION INFO: pH 7.5
QUANTITY MEASURED: pIC50
Keep in mind that pIC50 stands for -log10 of concentration in molar terms.

Challenge: # get_value(readout='pIC50', item= CC(C)Sc1sc(C(=O)O)c(-c2ccccc2F)c1C#N )
Response given: 5.89

Challenge: Next record, please: CC(C)Sc1sc(C(=O)O)c(-c2cccc3oc4ccccc4c23)c1C#N
Response given: 6.00

Challenge: Next record, please: COC(=O)c1cccc(-c2c(C(=O)O)sc(SC(C)C)c2C#N)c1
Response given: 6.21

Challenge: Next record, please: CSCC[C@H](NC(=O)c1ccc(NC[C@@H](N)CS)cc1-c1ccccc1)C(=O)O
Response given: 9.11

Challenge: Next record, please: CC(C)Sc1sc(C(=O)O)c(-c2ccccc2Cl)c1C#N
Response given: 5.85

Challenge: Next record, please: COC(=O)c1ccc(-c2c(C(=O)O)sc(SC(C)C)c2C#N)cc1
Response given: 7.07

----------
Give measured IC50 for each item. Keep answers brief.
TARGET OR TEST SYSTEM: Protein farnesyltransferase subunit beta/geranylgeranyltransferase type-1 subunit alpha (Homo sapiens, UniProt P49354+P49356)
EXPERIMENT SUMMARY: Human FTase Assay

Challenge: # get_value(readout='IC50', item= COc1ccccc1-c1c(C(=O)O)sc(SC(C)C)c1C#N )
Response given: > 50 µM

Challenge: Next record, please: Cc1ccccc1-c1c(C(=O)O)sc(SC(C)C)c1C#N
Response given: > 50 µM

Challenge: Next record, please: CC(C)Sc1sc(C(=O)O)c(-c2ccccc2Cl)c1C#N
Response given: > 50 µM

Challenge: Next record, please: CC(C)Sc1sc(C(=O)O)c(-c2ccccc2F)c1C#N
Response given: > 50 µM
